testSystem: Voltage-gated potassium channel subunit beta-2 (Rattus norvegicus) (UniProt P62483)
Sequence (P62483 whole entry, looked up): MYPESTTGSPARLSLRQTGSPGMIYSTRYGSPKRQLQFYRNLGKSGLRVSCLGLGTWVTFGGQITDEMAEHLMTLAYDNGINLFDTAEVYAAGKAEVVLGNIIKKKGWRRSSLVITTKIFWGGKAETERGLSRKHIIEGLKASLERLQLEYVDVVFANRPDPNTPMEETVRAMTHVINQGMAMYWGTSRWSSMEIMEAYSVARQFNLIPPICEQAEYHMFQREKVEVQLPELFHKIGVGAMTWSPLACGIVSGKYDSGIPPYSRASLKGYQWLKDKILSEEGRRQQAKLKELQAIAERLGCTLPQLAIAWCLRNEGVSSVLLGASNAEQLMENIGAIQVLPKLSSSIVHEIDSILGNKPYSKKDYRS
methodDescription: inhibitors of rat Kvbeta2 reductase activity – biochemical, NADPH fluorescence, primary screen (AID 622);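 further: slope of raw intensity against log time taken from 70 to 1610 s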
experimentalParameters: recombinant KvBeta, 4-cyanobenzaldehyde reduction, at 10 µM, hits give high values
quantityKind: fluorescence slope
// no unit string in output, number only

Use these answered entries as a reference point.
> print(dat)
                                   compound                                testsystem        quantitykind  endpointresult
1  COc1cc2c(cc1OC)CN(C(=O)COc1ccc(C)c(C)c1)CC2  Voltage-gated potassium channel subunit beta-2 (Rattus norvegicus) (UniProt P62483)  fluorescence slope          -0.456
2  COc1cc(C2c3c(n[nH]c3C)C(=O)N2c2ccc(Br)cc2)ccc1O (stereo unspecified)  Voltage-gated potassium channel subunit beta-2 (Rattus norvegicus) (UniProt P62483)  fluorescence slope          -0.408
3  CCCCCn1c(CN2CCN(C(=O)OCC)CC2)nc2c1c(=O)[nH]c(=O)n2C  Voltage-gated potassium channel subunit beta-2 (Rattus norvegicus) (UniProt P62483)  fluorescence slope          -0.564
4           CCc1nnc2c3cnn(-c4ccccc4)c3ncn12  Voltage-gated potassium channel subunit beta-2 (Rattus norvegicus) (UniProt P62483)  fluorescence slope          -0.616

For "Cc1[nH]c(C(=O)N2CCCCC2)c(C)c1C(=O)NC1CCCCC1" , what is its reported fluorescence slope?
-0.528

For Cc1ccc(NC(=O)C2CCCN(S(=O)(=O)c3cnc[nH]3)C2)cc1F (stereo unspecified) , what is its reported fluorescence slope?
-0.521

For CCOC(=O)C1CCCN(c2c(N3CCN(c4ccccn4)CC3)c(=O)c2=O)C1 (stereo unspecified) , what is its reported fluorescence slope?
-0.503

For "COc1ccc(-c2nc(C#N)c(N3CCOCC3)o2)cc1OC" , what is its reported fluorescence slope?
-0.341

For "CCn1c2ccccc2c2cc(N)ccc21" , what is its reported fluorescence slope?
-0.458

For "Cc1ncc(CSc2nc3ccccc3[nH]2)c(N)n1" , what is its reported fluorescence slope?
-0.606

For "Cc1cccc(-n2ncc3c(N4CCC5(CC4)OCCO5)ncnc32)c1" , what is its reported fluorescence slope?
-0.549

###

methodDescription: inhibitors of TNFa-induced NFkB p65 translocation, primary screen, imaging, HUVEC, MLSMR starter and 10KST1 sets (AID 438);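 further: compound added about 3h40 before a 20 min TNFalpha stimulation; signal is the nuclear over cytoplasmic p65 intensity ratio per well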
experimentalParameters: HUVEC TNFa-induced p65 nuclear translocation; at 2 µM, hits give high values, 0% TNFa-plus-vehicle, 100% no-TNFa wells
This listing pairs compounds with measured inhibition.
Give your result in % as a bare value.

Use these answered entries as a reference point.
> print(dat)
                                   compound  endpointresult
1  Cc1ccc(-c2noc(C3CCCN(C(=O)c4ccccc4)C3)n2)o1 (stereo unspecified)             5.2
2         CCN(CC)c1ccc(/C=N/n2nnnc2N)c(O)c1            -1.1
3       O=S(=O)(NCc1ccccc1)c1ccc2c(c1)OCCO2           -10.7
4  Cc1ccc(S(=O)(=O)N2CCCC2C(=O)OCc2nc3ccccc3s2)cc1 (stereo unspecified)            -1.1

For "COc1ccc(C(=O)c2ccccc2)c(O)c1" , what is its reported inhibition?
-2.6

For "Cc1cccc(-n2ncc3c(N(CCO)CCO)ncnc32)c1" , what is its reported inhibition?
1.4

For COc1cc(C2c3c(oc4ccccc4c3=O)C(=O)N2c2ccc(C)cn2)ccc1O (stereo unspecified) , what is its reported inhibition?
2.1

For "COc1ccc2nc(N3CCC(C)CC3)c(C#N)cc2c1" , what is its reported inhibition?
7.3

For "CCSCCNC(=O)c1cc(-n2cnnc2)ccc1Cl" , what is its reported inhibition?
1.3

For O=C(NC1CCCC1)C(c1cccs1)N(Cc1ccco1)C(=O)Cn1nnc(-c2cccs2)n1 (stereo unspecified) , what is its reported inhibition?
-3.3

For "Cc1cccc(NC(=O)CCN2CCN(C/C=C/c3ccccc3)CC2)c1" , what is its reported inhibition?
4.3

The measured values listed here are drawn from PubChem BioAssay.
